# Test system: Hs-746T (Gastric Carcinoma);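 note: after 72 h of two-drug dosing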
# assay-overview: Bliss excess, mean over the matrix (fraction); higher = more synergy
Here, each record is paired with measured Bliss excess data.

Cc1cc2ncnn2cc1Nc1ncc2c(n1)n(C1CCOCC1)c(=O)n2C [AZD7648] + CN(C)CCCOc1ccc(-c2ccc3ncc4c(c3c2)n(C2CCOCC2)c(=O)n4C)cn1 [AZD0156] (first compound max 10 µM, 7x7, partner max 1 µM)
-0.024

Next, consider the following compound.
// query Requested read-out: Bliss excess. Entry: CC1(C)CCC(CN2CCN(c3ccc(C(=O)NS(=O)(=O)c4ccc(NCC5CCOCC5)c([N+](=O)[O-])c4)c(Oc4cnc5[nH]ccc5c4)c3)CC2)=C(c2ccc(Cl)cc2)C1 [Venetoclax] + CCN(CCO)CCCOc1ccc2c(Nc3cc(CC(=O)Nc4cccc(F)c4)[nH]n3)ncnc2c1 [AZD2811] (first compound max 1 µM, 7x7, partner max 1 µM)
// result -0.0383
